measurementTarget: lysozyme (Gallus gallus, UniProt P00698)
Sequence (P00698 19-147): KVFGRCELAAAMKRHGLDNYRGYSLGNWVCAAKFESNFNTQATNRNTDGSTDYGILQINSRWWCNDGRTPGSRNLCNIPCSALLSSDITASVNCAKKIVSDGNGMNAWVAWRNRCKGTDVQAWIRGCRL
assayText: SPR adsorption of lysozyme to SAMs / grafted polymer films
Assay type: binding
experimentalSetup: mixed SAM —CONRR′/—CO2H
Where a SMILES comes first, the peptide text is derived from it.
Output schema: class label derived from dR/dton lysozyme (maximum initial rate of adsorption). Mapping: bucket 1: < 200 RU/sec; bucket 2: ≥ 200 RU/sec and < 700 RU/sec; bucket 3: ≥ 700 RU/sec

# compound, measurementTarget, discreteLabel
rows = [
    ("CC(=O)N1CCNCC1", "lysozyme (Gallus gallus, UniProt P00698)", "bucket 2"),
    ("CNCCN(C)C", "lysozyme (Gallus gallus, UniProt P00698)", "bucket 2"),
    ("CNCCN(C)C(C)=O", "lysozyme (Gallus gallus, UniProt P00698)", "bucket 1"),
    ("CNC[C@H](OC)[C@H](OC)[C@H](OC)[C@H](COC)OC", "lysozyme (Gallus gallus, UniProt P00698)", "bucket 1"),
    ("N#CCC(N)=C(C#N)C#N", "lysozyme (Gallus gallus, UniProt P00698)", "bucket 3"),
    ("N#CCNCC#N", "lysozyme (Gallus gallus, UniProt P00698)", "bucket 3"),
    ("N#CCCNCCC#N", "lysozyme (Gallus gallus, UniProt P00698)", "bucket 3"),
    ("CNCCN(C)C(=O)N(C)C", "lysozyme (Gallus gallus, UniProt P00698)", "bucket 2"),
    ("C1COCCOCCOCCOCCOCCN1", "lysozyme (Gallus gallus, UniProt P00698)", "bucket 1"),
    ("Nc1ccc(O[C@@H]2O[C@H](CO)[C@@H](O)[C@H](O)[C@H]2O)cc1", "lysozyme (Gallus gallus, UniProt P00698)", "bucket 3"),
    ("CC(=O)NCCN", "lysozyme (Gallus gallus, UniProt P00698)", "bucket 2"),
    ("CN(C)C(=O)CN", "lysozyme (Gallus gallus, UniProt P00698)", "bucket 2"),
    ("CN(C)C(=O)CNC(=O)CNC(=O)CN [H2N(Gly)3N(CH3)2] (H-Gly-Gly-Gly-NMe2)", "lysozyme (Gallus gallus, UniProt P00698)", "bucket 2"),
    ("C[N+](C)(C)CCN.[Cl-]", "lysozyme (Gallus gallus, UniProt P00698)", "bucket 1"),
    ("Nc1ccc(O[C@@H]2O[C@H](CO)[C@H](O)[C@H](O)[C@H]2O)cc1", "lysozyme (Gallus gallus, UniProt P00698)", "bucket 3"),
    ("CNCCNC", "lysozyme (Gallus gallus, UniProt P00698)", "bucket 1"),
    ("NC(CCCO)(CCCO)CCCO", "lysozyme (Gallus gallus, UniProt P00698)", "bucket 3"),
    ("CN1CCNCC1", "lysozyme (Gallus gallus, UniProt P00698)", "bucket 1"),
    ("NCC1COCCOCCOCCOCCOCCO1 (stereo not shown)", "lysozyme (Gallus gallus, UniProt P00698)", "bucket 1"),
]

Taken from patent US7494714B2.
